Target: UniProt J7G4I1
Sequence (J7G4I1 entry or part of it): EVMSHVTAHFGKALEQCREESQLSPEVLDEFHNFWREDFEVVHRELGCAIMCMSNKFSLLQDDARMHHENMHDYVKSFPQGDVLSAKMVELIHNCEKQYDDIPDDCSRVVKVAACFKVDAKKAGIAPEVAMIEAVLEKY
Experiment: Fluorescence competitive binding assay (1-NPN probe), recombinant CpomGOBP2a
Conditions: 2.0 µM protein and 2.0 µM 1-NPN, 50 mM Tris-HCl pH 7.4, competitor 2-20 µM, read-out: dissolution constants (Ki)
pKi: −log10 of the molar value.
measure: pKi

P = CCCCC/C=C\C=C\C(=O)OCC [ethyl (2E,4Z)-deca-2,4-dienoate]
Q = C/C=C/C=C/CCCCCCCO [codlemone]
Consider P and Q . Which of these has its pKi at a higher number? Reply with the label of the item you choose.
P

I = CCCCCCCC(=O)OCCCC [butyl octanoate]
II = CC(=O)CC/C=C(\C)CCC=C(C)C [geranylacetone]
// returns I or II , whichever has the lower pKi // caller expects the label of the chosen entry
II
(II: 4.64, I: 5.07)
